# Procedure details: Cell viability assay (CellTiter Glo) in a panel of cell lines
# Assay type: cell-based, human
# Study conditions: human, HCC-515 cells, HCC-515; log10 conc -6.50031 mol/l
Measurement kind: viability at 0.316 µM
# output: numeric value plus its unit

If you can, please state the reported viability at 0.316 µM value of Cc1ncsc1-c1ccc(C(CCC(C)CCN2CCC(c3ccc4c(c3)n(C3CCCC3)c3nc(=O)c5c(Br)cccc5n43)CC2)NC(=O)C2CC(O)CN2C(=O)C(NC(=O)C2(F)CC2)C(C)(C)C)cc1 (stereo not shown) .
22.4%

----------
# Procedure details: Cell viability assay (CellTiter Glo) in a panel of cell lines
# Assay type: cell-based, human
# Study conditions: Homo sapiens, Lu-99, LU99; values derived from curves in Extended Fig 4b; read-out: EC50 mean
Measurement kind: pEC50
pEC50 here: minus log base 10 of the concentration, concentration in moles per litre.

Report pEC50 for Cc1ncsc1-c1ccc(C(CCC(C)CCN2CCC(c3ccc4c(c3)n(C3CCCC3)c3nc(=O)c5c(Br)cccc5n43)CC2)NC(=O)C2CC(O)CN2C(=O)C(NC(=O)C2(F)CC2)C(C)(C)C)cc1 (stereo not shown) [ACBI2] please.
6.88

----------
This listing pairs compounds with measured Kd.
# Target system: SMARCA2^BD (Homo sapiens, UniProt P51531)
# Construct: P51531-2, residues 1373-1493 with additional N-terminal SM residues; GST (TEV site) (N, cleaved yes); made in house; host or cells: Escherichia coli BL21(DE3)
# Sequence (P51531 1373-1493 isoform P51531-2): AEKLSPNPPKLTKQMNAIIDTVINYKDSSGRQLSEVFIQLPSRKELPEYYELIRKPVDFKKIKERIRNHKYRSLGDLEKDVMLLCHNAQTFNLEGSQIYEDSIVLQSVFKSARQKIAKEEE
# Procedure details: SPR binding to immobilised SMARCA2 bromodomain
# Study conditions: SPR, SMARCA2BD; mean ± SD; read-out: SMARCA2 KD
The reply should contain only the number, in µM.

Compound	Target system	Meas value
O=c1nc2n(C3CCCC3)c3ccccc3n2c2cccc(Br)c12 [compound 1]	SMARCA2^BD (Homo sapiens, UniProt P51531)	1.06
Cc1ncsc1-c1ccc([C@H](COC(C)(C)CN2CCC(c3ccc4c(c3)n(C3CCCC3)c3nc(=O)c5c(Br)cccc5n43)CC2)NC(=O)[C@@H]2C[C@@H](O)CN2C(=O)[C@@H](NC(=O)C2(F)CC2)C(C)(C)C)cc1 [compound 28]	SMARCA2^BD (Homo sapiens, UniProt P51531)	0.196
Cc1ncsc1-c1ccc([C@H](COC(C)CN2CCC(c3ccc4c(c3)n(C3CCCC3)c3nc(=O)c5c(Br)cccc5n43)CC2)NC(=O)[C@@H]2C[C@@H](O)CN2C(=O)[C@@H](NC(=O)C2(F)CC2)C(C)(C)C)cc1 (stereo partly shown) [compound 9]	SMARCA2^BD (Homo sapiens, UniProt P51531)	0.263

// returns reported Kd for input Cc1ncsc1-c1ccc([C@H](CC[C@H](C)CCN2CCC(c3ccc4c(c3)n(C3CCCC3)c3nc(=O)c5c(Br)cccc5n43)CC2)NC(=O)[C@@H]2C[C@H](O)CN2C(=O)[C@@H](NC(=O)C2(F)CC2)C(C)(C)C)cc1 [compound 12]
0.214

Any idea what Kd was measured for Cc1ncsc1-c1ccc([C@H](COCCN2CCC(c3ccc4c(c3)n(C3CCCC3)c3nc(=O)c5c(Br)cccc5n43)CC2)NC(=O)[C@@H]2C[C@@H](O)CN2C(=O)[C@@H](NC(=O)C2(N(C)C)CC2)C(C)(C)C)cc1 [compound 26] ?
0.118

Need Kd, item CN1CCN(c2nc(=O)c3c(Cl)cccc3o2)CC1 [compound 13]
24.5

Requested read-out: Kd. Entry: Cc1ncsc1-c1ccc(CNC(=O)[C@@H]2C[C@@H](O)CN2C(=O)[C@@H](NC(=O)C2(F)CC2)C(C)(C)C)c(OCCCCN2CCC(c3ccc4c(c3)n(C3CCCC3)c3nc(=O)c5c(Br)cccc5n43)CC2)c1 [compound 23]
0.094

Please report the recorded Kd for Cc1ncsc1-c1ccc([C@H](CCC(C)(C)CCN2CCC(c3ccc4c(c3)n(C3CCCC3)c3nc(=O)c5c(Br)cccc5n43)CC2)NC(=O)[C@@H]2C[C@@H](O)CN2C(=O)[C@@H](NC(=O)C2(F)CC2)C(C)(C)C)cc1 [compound 30] .
0.325

Can you share its Kd? I mean this compound: Cc1ncsc1-c1ccc(C(CCC(C)CCN2CCC(c3ccc4c(c3)n(C3CCCC3)c3nc(=O)c5c(Br)cccc5n43)CC2)NC(=O)C2CC(O)CN2C(=O)C(NC(=O)C2(F)CC2)C(C)(C)C)cc1 (stereo not shown) [ACBI2]
0.208

Could you share which Kd value was measured for CN1CCC(c2ccc3c(c2)n(C2CCCC2)c2nc(=O)c4c(Br)cccc4n32)CC1 [compound 3] ?
0.046

----------
Listing of entries alongside the reported concentration at 0.25 h.
# Procedure details: Pharmacokinetic analyses in mouse
# Format: in vivo
# Study conditions: mouse, plasma, intravenous, 5 mg/kg, 5 mg/kg i.v.; time 0.25 h; individual animals; read-out: Concentration
Return type: number; implicit unit µM.

Compound	Endpoint unit	Meas value
Cc1ncsc1-c1ccc(C(CCC(C)CCN2CCC(c3ccc4c(c3)n(C3CCCC3)c3nc(=O)c5c(Br)cccc5n43)CC2)NC(=O)C2CC(O)CN2C(=O)C(NC(=O)C2(F)CC2)C(C)(C)C)cc1 (centres unmarked)	µM	7.53

Next:
Name the reported concentration at 0.25 h value associated with the compound `Cc1ncsc1-c1ccc([C@H](CCCCCN2CCC(c3ccc4c(c3)n(C3CCCC3)c3nc(=O)c5c(Br)cccc5n43)CC2)NC(=O)[C@@H]2C[C@@H](O)CN2C(=O)[C@@H](NC(=O)C2(F)CC2)C(C)(C)C)cc1`
9.71

----------
# Procedure details: Pharmacokinetic analyses in mouse
# Assay type: in vivo
# Study conditions: mouse, plasma, po, 30 mg/kg, mouse, 30 mg/kg p.o., 6 h, individual animals; read-out: Plasma concentration
Measurement kind: concentration at 6 h (nM)
All answers are understood in nM, so give the number only.

Using the record for Cc1ncsc1-c1ccc(C(CCC(C)CCN2CCC(c3ccc4c(c3)n(C3CCCC3)c3nc(=O)c5c(Br)cccc5n43)CC2)NC(=O)C2CC(O)CN2C(=O)C(NC(=O)C2(F)CC2)C(C)(C)C)cc1 (stereo not shown) , report its concentration at 6 h.
2750

----------
# Procedure details: Cell viability assay (CellTiter Glo) in a panel of cell lines
# Type: cell-based, human
# Study conditions: Homo sapiens, HCC364, HCC-364; values derived from curves in Extended Fig 4b; read-out: EC50 mean
Measurement kind: EC50 (µM)
Respond with the bare value in µM.

Which measured EC50 value corresponds to Cc1ncsc1-c1ccc(C(CCC(C)CCN2CCC(c3ccc4c(c3)n(C3CCCC3)c3nc(=O)c5c(Br)cccc5n43)CC2)NC(=O)C2CC(O)CN2C(=O)C(NC(=O)C2(F)CC2)C(C)(C)C)cc1 (stereo not shown) ?
0.0708

----------
In this section, each of the compounds is paired with its reported AUC(0-inf).
# Procedure details: Pharmacokinetic analyses in mouse
# Assay type: in vivo
# Study conditions: mouse, plasma, iv, 5 mg/kg, mouse, 5 mg/kg i.v., NCA, individual animals; read-out: AUCinf
In your response, put the unit directly after the numeric value.

Compound	AUC(0-inf)
Cc1ncsc1-c1ccc([C@H](CCCCCN2CCC(c3ccc4c(c3)n(C3CCCC3)c3nc(=O)c5c(Br)cccc5n43)CC2)NC(=O)[C@@H]2C[C@@H](O)CN2C(=O)[C@@H](NC(=O)C2(F)CC2)C(C)(C)C)cc1	30.6 µM·h

We now examine a further compound.
What value of measured AUC(0-inf) is listed for Cc1ncsc1-c1ccc(C(CCC(C)CCN2CCC(c3ccc4c(c3)n(C3CCCC3)c3nc(=O)c5c(Br)cccc5n43)CC2)NC(=O)C2CC(O)CN2C(=O)C(NC(=O)C2(F)CC2)C(C)(C)C)cc1 (centres unmarked) ?
34.7 µM·h

----------
# Procedure details: Cell viability assay (CellTiter Glo) in a panel of cell lines
# Type: cell-based, human
# Study conditions: human, MP38 cells, MP38; log10 conc -6 mol/l
Measurement kind: viability at 1 µM (%)
# value in %; strip the unit string

For Cc1ncsc1-c1ccc(C(CCC(C)CCN2CCC(c3ccc4c(c3)n(C3CCCC3)c3nc(=O)c5c(Br)cccc5n43)CC2)NC(=O)C2CC(O)CN2C(=O)C(NC(=O)C2(F)CC2)C(C)(C)C)cc1 (stereo not shown) , what is its reported viability at 1 µM?
1.87

----------
# Tested on: Caco-2 cell monolayer
# Procedure details: Bidirectional permeability measurement in Caco-2 cells
# Format: in vitro ADME
# Study conditions: Caco-2
Overview of recorded Caco-2 Pab for various molecules

Molecule	Target system	Meas value
Cc1ncsc1-c1ccc(CNC(=O)[C@@H]2C[C@@H](O)CN2C(=O)[C@@H](NC(=O)C2(F)CC2)C(C)(C)C)c(OCCOCCOCCN2CCC(c3ccc4c(c3)n(C3CCCC3)c3nc(=O)c5c(Br)cccc5n43)CC2)c1 [compound 21]	Caco-2 cell monolayer	<0.3 10-6 cm/s
Cc1ncsc1-c1ccc([C@H](COC(C)CN2CCC(c3ccc4c(c3)n(C3CCCC3)c3nc(=O)c5c(Br)cccc5n43)CC2)NC(=O)[C@@H]2C[C@@H](O)CN2C(=O)[C@@H](NC(=O)C2(N(C)C)CC2)C(C)(C)C)cc1 (some centres unmarked) [compound 10]	Caco-2 cell monolayer	6 10-6 cm/s
Cc1ncsc1-c1ccc(CNC(=O)[C@@H]2C[C@@H](O)CN2C(=O)[C@@H](NC(=O)C2(F)CC2)C(C)(C)C)c(OCCN2CCC(c3ccc4c(c3)n(C3CCCC3)c3nc(=O)c5c(Br)cccc5n43)CC2)c1 [compound 20]	Caco-2 cell monolayer	<0.4 10-6 cm/s

Sample Cc1ncsc1-c1ccc([C@H](CCC(C)(C)CCN2CCC(c3ccc4c(c3)n(C3CCCC3)c3nc(=O)c5c(Br)cccc5n43)CC2)NC(=O)[C@@H]2C[C@@H](O)CN2C(=O)[C@@H](NC(=O)C2(F)CC2)C(C)(C)C)cc1 [compound 30] — what was its Caco-2 Pab?
<0.3 10-6 cm/s

// lookup Caco-2 Pab for Cc1ncsc1-c1ccc([C@H](COC(C)(C)CN2CCC(c3ccc4c(c3)n(C3CCCC3)c3nc(=O)c5c(Br)cccc5n43)CC2)NC(=O)[C@@H]2C[C@@H](O)CN2C(=O)[C@@H](NC(=O)C2(F)CC2)C(C)(C)C)cc1 [compound 28]
5 ± 2 10-6 cm/s

Given the molecule Cc1ncsc1-c1ccc([C@H](CCCCN2CCC(c3ccc4c(c3)n(C3CCCC3)c3nc(=O)c5c(Br)cccc5n43)CC2)NC(=O)[C@@H]2C[C@@H](O)CN2C(=O)[C@@H](NC(=O)C2(F)CC2)C(C)(C)C)cc1 [compound 25] , what is its reported Caco-2 Pab?
<4 10-6 cm/s

I would be grateful if you could share the reported Caco-2 Pab for Cc1ncsc1-c1ccc(CNC(=O)[C@@H]2C[C@@H](O)CN2C(=O)[C@@H](NC(=O)C2(F)CC2)C(C)(C)C)c(OCCCCN2CCC(c3ccc4c(c3)n(C3CCCC3)c3nc(=O)c5c(Br)cccc5n43)CC2)c1 [compound 23] .
0.4 10-6 cm/s

Give the measured Caco-2 Pab of Cc1ncsc1-c1ccc(CNC(=O)[C@@H]2C[C@@H](O)CN2C(=O)[C@@H](NC(=O)C2(F)CC2)C(C)(C)C)c(OCCOCCOCCOCCN2CCC(c3ccc4c(c3)n(C3CCCC3)c3nc(=O)c5c(Br)cccc5n43)CC2)c1 [compound 22] .
<0.3 10-6 cm/s

Fill in: Caco-2 Pab of Cc1ncsc1-c1ccc([C@H](CC[C@@H](C)CCN2CCC(c3ccc4c(c3)n(C3CCCC3)c3nc(=O)c5c(Br)cccc5n43)CC2)NC(=O)[C@@H]2C[C@@H](O)CN2C(=O)[C@@H](NC(=O)C2(F)CC2)C(C)(C)C)cc1 [compound 29] is ___
2 ± 0.2 10-6 cm/s

Can you look up the measured Caco-2 Pab of CN1CCN(c2nc(=O)c3c(Cl)cccc3o2)CC1 [compound 13] for me?
93 10-6 cm/s

Consider the molecule shown here: Cc1ncsc1-c1ccc([C@H](COCCCN2CCC(c3ccc4c(c3)n(C3CCCC3)c3nc(=O)c5c(Br)cccc5n43)CC2)NC(=O)[C@@H]2C[C@@H](O)CN2C(=O)[C@@H](NC(=O)C2(F)CC2)C(C)(C)C)cc1 [compound 27] What is its recorded Caco-2 Pab?
5 10-6 cm/s
